Biological target: JAK3 (Homo sapiens, UniProt P52333)
Construct: recombinant purified GST-tagged catalytic domain for each enzyme
Sequence (P52333 822-1111 limits assumed): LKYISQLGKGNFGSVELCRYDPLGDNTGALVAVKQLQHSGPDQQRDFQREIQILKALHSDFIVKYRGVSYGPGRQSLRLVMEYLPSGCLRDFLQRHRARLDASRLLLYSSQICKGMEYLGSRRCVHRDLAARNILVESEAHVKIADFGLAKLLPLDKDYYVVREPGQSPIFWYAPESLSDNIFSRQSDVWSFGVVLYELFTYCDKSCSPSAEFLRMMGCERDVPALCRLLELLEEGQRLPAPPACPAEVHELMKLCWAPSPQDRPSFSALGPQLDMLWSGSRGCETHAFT
Experiment: Jak Biochemical HTRF Assay (JAK3)
Details: recombinant purified GST-tagged catalytic domain, [ATP] 2.9 μM, values given as range classes
pIC50: −log10 of the molar value.
reported.property: pIC50

I have this molecule here, CC(C)[C@H](Nc1cncc(-c2c[nH]c3ncc(OCCc4ccccn4)cc23)c1)C(=O)NCC(F)(F)F , and I need its recorded pIC50.
≥ 8.00

# iterate: CC(C)(Nc1cncc(-c2c[nH]c3ncc(C(N)=O)cc23)c1)C(=O)NCC(F)(F)F
≥ 8.00

# iterate: CC(C)[C@@H](Nc1cnnc(-c2c[nH]c3ncc(C(N)=O)cc23)n1)C(=O)NCC(F)(F)F
≥ 8.00

# iterate: CC(C)C(Nc1cncc(-c2c[nH]c3ncc(S(=O)(=O)N(C)C)cc23)c1)C(=O)NCC(F)(F)F (centres unmarked)
6.30 to 8.00

# iterate: CC(C)[C@H](Nc1cncc(-c2c[nH]c3ncc(OCCN4CCN(C)CC4)cc23)c1)C(=O)NCC(F)(F)F
≥ 8.00

# iterate: CC(=O)Nc1cnc2[nH]cc(-c3cncc(N[C@H](C(=O)NCC(F)(F)F)C(C)C)c3)c2c1
≥ 8.00

# iterate: CC(C)(Nc1cnnc(-c2c[nH]c3ncc(F)cc23)n1)C(=O)NCC(F)(F)F
≥ 8.00

# iterate: Clc1cnc2[nH]cc(-c3cc(N4CCCC4c4nccs4)cnn3)c2c1 (centres unmarked)
6.30 to 8.00

# iterate: C=CCOCc1cnc2[nH]cc(-c3cncc(N[C@@H](C(=O)NCC(F)(F)F)C(C)C)c3)c2c1
≥ 8.00

# iterate: CCC(=O)Nc1cnc2[nH]cc(-c3cncc(NC(C(=O)NCC(F)(F)F)C(C)C)c3)c2c1 (centres unmarked)
≥ 8.00

# iterate: CC(C)[C@H](Nc1cncc(-c2c[nH]c3ncc(OC4CCCC4)cc23)c1)C(=O)NCC(F)(F)F
≥ 8.00

# iterate: CC(C)Oc1cnc2[nH]cc(-c3cncc(N[C@@H](C(=O)NCC(F)(F)F)C(C)C)c3)c2c1
≥ 8.00

# iterate: Clc1cnc2[nH]cc(-c3nncc(N4CCCC4c4nccs4)n3)c2c1 (centres unmarked)
6.30 to 8.00

# iterate: CC(C)[C@H](Nc1cncc(-c2c[nH]c3ncc(OCC4CC4)cc23)c1)C(=O)NCC(F)(F)F
≥ 8.00

# iterate: CC(C)CNC(=O)c1cnc2[nH]cc(-c3cncc(N[C@@H](C(=O)NCC(F)(F)F)C(C)C)c3)c2c1
≥ 8.00

# iterate: CC(C)[C@H](Nc1cncc(-c2c[nH]c3ncc(NC(=O)Nc4ccc(F)cc4F)cc23)c1)C(=O)NCC(F)(F)F
≥ 8.00

# iterate: CC(C)NC(=O)Nc1cnc2[nH]cc(-c3cncc(N[C@H](C(=O)NCC(F)(F)F)C(C)C)c3)c2c1
≥ 8.00
